# Tested on: H-720
# assay remarks: Neuroendocrine cell line growth inhibition, Cell Titer Glow, 72 hrs
# Assay type: cell-based
# conditions used: H-720, 72 hrs
Structures can show the parent of a compound that is named as a salt.
property name: GI50 (nM)
Respond with the bare value in nM.

Sample answers from the record:
CC1(C)CC(=O)c2c(C(F)(F)F)nn(-c3ccc(C(N)=O)c(N[C@H]4CC[C@H](O)CC4)c3)c2C1 [SNX-2112, reference compound] | 133
CCNC(=O)c1noc(-c2cc(C(C)C)c(O)cc2O)c1-c1ccc(CN2CCOCC2)cc1 [NVP-AUY922, reference compound] | 68
CO[C@H]1/C=C\C=C(/C)C(=O)NC2=CC(=O)C(N)=C(C[C@@H](C)C[C@H](OC)[C@H](O)[C@@H](C)/C=C(\C)[C@@H]1OC(N)=O)C2=O | 189

Looking up C=CCNc1c(O)cc2c(O)c1C[C@@H](C)C[C@H](OC)[C@H](O)[C@@H](C)/C=C(\C)[C@H](OC(N)=O)[C@@H](OC)/C=C\C=C(/C)C(=O)N2 [IPI-504, retaspimycin hydrochloride] , I found its GI50 recorded as 930
